Provide the recorded IC50 for the entries that follow.
tested-on: human P2X7 channel (Homo sapiens)
Construct: expressed in transfected cells; host or cells: HEK-293
Sequence (Q99572 whole entry): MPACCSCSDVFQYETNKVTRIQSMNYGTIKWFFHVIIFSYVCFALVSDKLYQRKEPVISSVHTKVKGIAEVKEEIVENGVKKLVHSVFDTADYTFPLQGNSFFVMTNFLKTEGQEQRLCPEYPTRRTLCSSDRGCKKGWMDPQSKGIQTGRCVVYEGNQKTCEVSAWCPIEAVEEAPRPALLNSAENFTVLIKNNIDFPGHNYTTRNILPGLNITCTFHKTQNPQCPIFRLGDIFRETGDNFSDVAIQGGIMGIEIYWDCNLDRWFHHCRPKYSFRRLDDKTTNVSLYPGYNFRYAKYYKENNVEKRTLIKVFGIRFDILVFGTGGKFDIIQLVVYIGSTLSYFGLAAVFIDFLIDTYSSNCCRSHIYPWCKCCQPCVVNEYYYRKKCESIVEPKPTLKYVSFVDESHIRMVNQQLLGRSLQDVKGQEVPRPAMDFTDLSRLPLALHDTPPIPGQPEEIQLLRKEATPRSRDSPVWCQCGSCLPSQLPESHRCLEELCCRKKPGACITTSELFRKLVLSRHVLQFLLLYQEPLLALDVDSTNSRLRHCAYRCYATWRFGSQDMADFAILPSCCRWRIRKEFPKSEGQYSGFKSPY
protocol-description: human P2X7 channel assay by automated patch-clamp (QPatch 16X)
Format: cell-based
condition-parameters: HEK-293 cells expressing P2X7; current evoked by 100 microM BzATP; whole-cell, held at -80 mV; read-out: human Q-Patch (activity range)

For orientation, consider the following solved cases.
[[record]]
compound = "Cn1nc(Cc2ccccc2C(F)(F)F)n(CC2CCCCC2(C)C)c1=O (stereo not shown)"
tested_on = "human P2X7 channel (Homo sapiens)"
result = "1000 to 10000 nM"

[[record]]
compound = "Cn1nc(Cc2ccccc2F)n(CC2CCCCC2)c1=O"
tested_on = "human P2X7 channel (Homo sapiens)"
result = "1000 to 10000 nM"

[[record]]
compound = "Cn1nc(Cc2ccccc2F)n(CCC2CCC(C)(C)CC2)c1=O"
tested_on = "human P2X7 channel (Homo sapiens)"
result = "1000 to 10000 nM"


**Query** Report IC50 for Cn1nc(Cc2ccccc2C(F)(F)F)n(CC2CCC(F)(F)CC2)c1=O please.
**Result** 10 to 100 nM
